# MIC listing for each entry below
Tested on: Candida albicans
Method Summary: Antifungal activity against Candida albicans ATCC 14053 after 48 hrs by broth microdilution method
Format: functional
Settings: ATCC 14053, 48 h

- Compound: "CN(C)C(=S)SC(=S)N1CCN(c2cccc(Cl)c2)CC1"
  Operator: ">"
  MIC (µM): 139
- Compound: "CCCCSC(=S)N1CCN(C(=S)SC(=S)N(C)C)CC1"
  Operator: "="
  MIC (µM): 131
- Compound: "CN(C)C(=S)SC(=S)N1CCN(C(=S)Nc2ccccc2)CC1"
  Operator: ">"
  MIC (µM): 130
- Compound: "CCOC(=O)N1CCN(C(=S)SC(=S)N(C)C)CC1"
  Operator: "="
  MIC (µM): 156
- Compound: "CC1CCCN(C(=S)SC(=S)N(C)C)C1 (stereo not given)"
  Operator: "="
  MIC (µM): 95.4
- Compound: "CN(C)C(=S)SC(=S)N1CCCCC1"
  Operator: "="
  MIC (µM): 25.2
- Compound: "CN(C)C(=S)SC(=S)N1CCN(C(=O)OC(C)(C)C)CC1"
  Operator: "="
  MIC (µM): 143
- Compound: "CN(C)C(=S)SC(=S)N1CCN(C(=S)NC2CCCCC2)CC1"
  Operator: ">"
  MIC (µM): 128
- Compound: "CN(C)C(=S)SC(=S)N1CCCC1"
  Operator: "="
  MIC (µM): 26.7
- Compound: "COc1ccccc1N1CCN(C(=S)SC(=S)N(C)C)CC1"
  Operator: ">"
  MIC (µM): 140
- Compound: "CN(C)C(=S)SC(=S)N1CCN(c2ncccn2)CC1"
  Operator: "="
  MIC (µM): 153
- Compound: "CN1CCN(C(=S)SC(=S)N(C)C)CC1"
  Operator: "="
  MIC (µM): 95
- Compound: "CN(C)C(=S)SC(=S)N1CCN(C(=O)NC2CCCCC2)CC1"
  Operator: ">"
  MIC (µM): 133
- Compound: "CN(C)C(=S)SC(=S)N1CCN(C(=S)SCCCC#N)CC1"
  Operator: ">"
  MIC (µM): 127
- Compound: "CCSC(=S)N1CCN(C(=S)SC(=S)N(C)C)CC1"
  Operator: "="
  MIC (µM): 141
- Compound: "CCCCNC(=S)N1CCN(C(=S)SC(=S)N(C)C)CC1"
  Operator: ">"
  MIC (µM): 137
- Compound: "CN(C)C(=S)SC(=S)N1CCN(C(=S)NCc2ccccc2)CC1"
  Operator: ">"
  MIC (µM): 125
- Compound: "CSC(=S)N1CCN(C(=S)SC(=S)N(C)C)CC1"
  Operator: ">"
  MIC (µM): 147
- Compound: "CN(C)C(=S)SC(=S)N1CCCCCC1"
  Operator: "="
  MIC (µM): 11.9
- Compound: "CN(C)C(=S)SC(=S)N(C)C"
  Operator: "="
  MIC (µM): 120
- Compound: "CN(C)C(=S)SC(=S)N1CCN(C(=O)c2ccco2)CC1"
  Operator: "="
  MIC (µM): 146
- Compound: "CN(C)C(=S)SC(=S)N1CCN(C(=S)SCc2ccccc2)CC1"
  Operator: "="
  MIC (µM): 120
- Compound: "CN(C)C(=S)SC(=S)N1CCN(C(=S)NCCc2ccccc2)CC1"
  Operator: ">"
  MIC (µM): 121
- Compound: "CN(C)C(=S)SC(=S)N1CCN(c2cccc(Cl)c2Cl)CC1"
  Operator: ">"
  MIC (µM): 127
- Compound: "CN(C)C(=S)SC(=S)N1CCOCC1"
  Operator: "="
  MIC (µM): 50
- Compound: "CN(C)C(=S)SC(=S)N1CCN(c2ccccc2)CC1"
  Operator: ">"
  MIC (µM): 153
- Compound: "CCN(C)C(=S)SC(=S)N(C)C"
  Operator: "="
  MIC (µM): 113
- Compound: "OC(Cn1cncn1)(Cn1cncn1)c1ccc(F)cc1F"
  Operator: "="
  MIC (µM): 0.39
- Compound: "CCN(CC)C(=S)SC(=S)N(C)C"
  Operator: ">"
  MIC (µM): 212
- Compound: "CCCCN1CCN(C(=S)SC(=S)N(C)C)CC1"
  Operator: "="
  MIC (µM): 163

====

# selectivity ratio listing for each entry below
Method Summary: Selectivity index, ratio of IC50 for human HeLa cells to MIC for metronidazole-susceptible Trichomonas vaginalis
Format: toxicity
Settings: read-out: Selectivity Index

- Molecule Smiles: "CN(C)C(=S)SC(=S)N1CCN(C(=O)OC(C)(C)C)CC1"
  Operator: "="
  selectivity ratio: 73
- Molecule Smiles: "CCCCSC(=S)N1CCN(C(=S)SC(=S)N(C)C)CC1"
  Operator: ">"
  selectivity ratio: 19
- Molecule Smiles: "CN(C)C(=S)SC(=S)N1CCN(C(=O)c2ccco2)CC1"
  Operator: "="
  selectivity ratio: 130

====

Test system: Candida albicans
Method Summary: Antifungal activity against Candida albicans ATCC 10231 after 48 hrs by broth microdilution method
Assay type: functional
Settings: ATCC 10231, 48 h

- Molecule Smiles: "COc1ccccc1N1CCN(C(=S)SC(=S)N(C)C)CC1"
  MIC: "> 140 µM"
- Molecule Smiles: "CN(C)C(=S)SC(=S)N1CCN(C(=S)NC2CCCCC2)CC1"
  MIC: "> 128 µM"
- Molecule Smiles: "CCCCN1CCN(C(=S)SC(=S)N(C)C)CC1"
  MIC: "163 µM"
- Molecule Smiles: "CN(C)C(=S)SC(=S)N1CCN(c2cccc(Cl)c2Cl)CC1"
  MIC: "> 127 µM"
- Molecule Smiles: "CCCCSC(=S)N1CCN(C(=S)SC(=S)N(C)C)CC1"
  MIC: "> 131 µM"
- Molecule Smiles: "CN(C)C(=S)SC(=S)N1CCN(C(=O)NC2CCCCC2)CC1"
  MIC: "> 133 µM"

====

Method Summary: Elimination half life in Sprague-Dawley rat at 50 mg/kg, po measured up to 24 hrs by LC-MS/MS analysis
Assay type: ADME, organism-based
Settings: in vivo, read-out: beta t1/2 (converted)

- Molecule Smiles: "CN(C)C(=S)SC(=S)N1CCN(c2ncccn2)CC1"
  Units: "min"
  half-life: 156

====

# selectivity ratio listing for each entry below
Method Summary: Selectivity index, ratio of IC50 for human HeLa cells to MIC for metronidazole-resistant Trichomonas vaginalis CDC085 ATCC 50143
Type: toxicity
Settings: read-out: Selectivity Index

- Molecule Smiles: "CSC(=S)N1CCN(C(=S)SC(=S)N(C)C)CC1"
  selectivity ratio: "> 7"
- Molecule Smiles: "CCN(C)C(=S)SC(=S)N(C)C"
  selectivity ratio: 9
- Molecule Smiles: "CN(C)C(=S)SC(=S)N1CCN(C(=S)Nc2ccccc2)CC1"
  selectivity ratio: "> 154"
- Molecule Smiles: "CCN(CC)C(=S)SC(=S)N(C)C"
  selectivity ratio: "> 47"
- Molecule Smiles: "CN(C)C(=S)SC(=S)N1CCN(c2cccc(Cl)c2)CC1"
  selectivity ratio: 18
- Molecule Smiles: "CN(C)C(=S)SC(=S)N1CCCCC1"
  selectivity ratio: "> 50"
- Molecule Smiles: "CN(C)C(=S)SC(=S)N1CCN(C(=O)OC(C)(C)C)CC1"
  selectivity ratio: 18
- Molecule Smiles: "COc1ccccc1N1CCN(C(=S)SC(=S)N(C)C)CC1"
  selectivity ratio: 6
- Molecule Smiles: "CN(C)C(=S)SC(=S)N1CCCC1"
  selectivity ratio: 29
- Molecule Smiles: "CCCCSC(=S)N1CCN(C(=S)SC(=S)N(C)C)CC1"
  selectivity ratio: "> 7"
- Molecule Smiles: "CN(C)C(=S)SC(=S)N1CCN(C(=S)SCc2ccccc2)CC1"
  selectivity ratio: "> 41"
- Molecule Smiles: "CN(C)C(=S)SC(=S)N1CCN(C(=S)NCc2ccccc2)CC1"
  selectivity ratio: "> 20"
- Molecule Smiles: "Cc1ncc([N+](=O)[O-])n1CCO"
  selectivity ratio: "> 13"

====

# pIC50 listing for each entry below
System: Plasmodium falciparum
Method Summary: Antimalarial activity against chloroquine-sensitive Plasmodium falciparum 3D7 infecetd in RBC after 72 hrs by SYBR Green dye-based fluorescence assay
Format: functional, organism-based
Settings: 3D7, Erythrocyte
pIC50: −log10 of the molar value.

- Molecule Smiles: "CN(C)C(=S)SC(=S)N1CCN(C(=O)OC(C)(C)C)CC1"
  pIC50: 6.11
- Molecule Smiles: "CN(C)C(=S)SC(=S)N1CCN(C(=O)c2ccco2)CC1"
  pIC50: 6.10
- Molecule Smiles: "CN(C)C(=S)SC(=S)N1CCN(C(=S)Nc2ccccc2)CC1"
  pIC50: 6.14
- Molecule Smiles: "CN(C)C(=S)SC(=S)N1CCN(c2ncccn2)CC1"
  pIC50: 6.12

Numbers sourced from ChEMBL document CHEMBL4138228.
